Experiment: Regeneration of drug from bone powder-bound prodrug
Format: in vitro ADME
Protocol: Amounts of parent drug “regenerated” from the phosphonated prodrug were measured as follows. Washed bone powder-bound prodrugs from the above experiment were resuspended in 400 μL PBS+2% DMSO or in 400 μL 50% (v/v in PBS+2% DMSO) human or rat serum. […] The amount of regenerated parent drug in the supernatant was determined by measurements using the microbiological assay that was previously described for the prodrugs themselves. […]
measurement.name: Regeneration of parent drug once bound to bone (in words)

1) CO[C@H]1/C=C/O[C@@]2(C)Oc3c(C)c(O)c4c(c3C2=O)C2=NC3(CCN(CC(C)C)CC3)NC2=C(NC(=O)/C(C)=C\C=C\[C@H](C)[C@H](OC(=O)CNC(=O)CC(P(=O)(O)O)P(=O)(O)O)[C@@H](C)[C@@H](O)[C@@H](C)[C@H](OC(C)=O)[C@@H]1C)C4=O not able to regenerate
2) CCN(CC)CC.CCN(CC)CC.CO[C@H]1/C=C/O[C@@]2(C)Oc3c(C)c(O)c4c(=O)c(c5oc6cc(N7CCN(CC(C)C)CC7)cc(O)c6nc-5c4c3C2=O)NC(=O)/C(C)=C\C=C\[C@H](C)[C@H](OC(=O)CCC(=O)NCCC(=O)NC(P(=O)(O)O)P(=O)(O)O)[C@@H](C)[C@@H](O)[C@@H](C)[C@H](OC(C)=O)[C@@H]1C not able to regenerate
3) CCN(CC)CC.CCN(CC)CC.CO[C@H]1/C=C/O[C@@]2(C)Oc3c(C)c(O)c4c(c3C2=O)C2=NC3(CCN(CC(C)C)CC3)NC2=C(NC(=O)/C(C)=C\C=C\[C@H](C)[C@H](OC(=O)CCC(=O)NC(P(=O)(O)O)P(=O)(O)O)[C@@H](C)[C@@H](O)[C@@H](C)[C@H](OC(C)=O)[C@@H]1C)C4=O not able to regenerate

* * *

Test: Regeneration of drug from bone powder-bound prodrug
Format: in vitro ADME
Details: serum compared to PBS
measurement.name: Impact of the medium on the rate of regeneration of parent drug (in words)

1. CO[C@H]1/C=C/O[C@@]2(C)Oc3c(C)c(O)c4c(=O)c(c5oc6cc(N7CCN(CCOC(=O)CCC(=O)NC(P(=O)(O)O)P(=O)(O)O)CC7)cc(O)c6nc-5c4c3C2=O)NC(=O)/C(C)=C\C=C\[C@H](C)[C@H](O)[C@@H](C)[C@@H](O)[C@@H](C)[C@H](OC(C)=O)[C@@H]1C.N.N significant acceleration
2. CO[C@H]1/C=C/O[C@@]2(C)Oc3c(C)c(O)c4c(=O)c(c5oc6cc(N7CCC(OC(=O)CCC(=O)NC(P(=O)(O)O)P(=O)(O)O)CC7)cc(O)c6nc-5c4c3C2=O)NC(=O)/C(C)=C\C=C\[C@H](C)[C@H](O)[C@@H](C)[C@@H](O)[C@@H](C)[C@H](OC(C)=O)[C@@H]1C significant acceleration

* * *

% Conversion of bone-bound prodrug to parent drug reference
Experiment: Regeneration of drug from bone powder-bound prodrug
Assay type: in vitro ADME
Conditions: PBS; 24 h incubation, 37° C.
measurement.name: % Conversion of bone-bound prodrug to parent drug (%)

1. CO[C@H]1/C=C/O[C@@]2(C)Oc3c(C)c(O)c4c(=O)c(c5oc6cc(N7CCN(CC(C)C)CC7)cc(O)c6nc-5c4c3C2=O)NC(=O)/C(C)=C\C=C\[C@H](C)[C@H](OC(=O)CCCOC(=O)CCC(=O)NC(P(=O)(O)O)P(=O)(O)O)[C@@H](C)[C@@H](O)[C@@H](C)[C@H](OC(C)=O)[C@@H]1C 1.98
2. CO[C@H]1/C=C/O[C@@]2(C)Oc3c(C)c(O)c4c(=O)c(c5oc6cc(N7CCN(CCOC(=O)CCC(=O)NC(P(=O)(O)O)P(=O)(O)O)CC7)cc(O)c6nc-5c4c3C2=O)NC(=O)/C(C)=C\C=C\[C@H](C)[C@H](O)[C@@H](C)[C@@H](O)[C@@H](C)[C@H](OC(C)=O)[C@@H]1C.N.N 0.21
3. CO[C@H]1/C=C/O[C@@]2(C)Oc3c(C)c(O)c4c(=O)c(c5oc6cc(N7CCC(OC(=O)CCC(=O)NC(P(=O)(O)O)P(=O)(O)O)CC7)cc(O)c6nc-5c4c3C2=O)NC(=O)/C(C)=C\C=C\[C@H](C)[C@H](O)[C@@H](C)[C@@H](O)[C@@H](C)[C@H](OC(C)=O)[C@@H]1C 0.02
4. CO[C@H]1/C=C/O[C@@]2(C)Oc3c(C)c(O)c4c(=O)c(c5oc6cc(N7CCN(CCC(=O)c8ccc(OCCCC(P(=O)(O)O)P(=O)(O)O)cc8)CC7)cc(O)c6nc-5c4c3C2=O)NC(=O)/C(C)=C\C=C\[C@H](C)[C@H](O)[C@@H](C)[C@@H](O)[C@@H](C)[C@H](OC(C)=O)[C@@H]1C 0.1
5. CCN(CC)CC.CCN(CC)CC.CO[C@H]1/C=C/O[C@@]2(C)Oc3c(C)c(O)c4c(c3C2=O)C2=NC3(CCN(CC(C)C)CC3)N(C(=O)OCOC(=O)CCCC(P(=O)(O)O)P(=O)(O)O)C2=C(NC(=O)/C(C)=C\C=C\[C@H](C)[C@H](O)[C@@H](C)[C@@H](O)[C@@H](C)[C@H](OC(C)=O)[C@@H]1C)C4=O 2.65

* * *

Test system: S. aureus ATCC 13709
Assay: Antibacterial susceptibility (MIC), NCCLS broth microdilution
Format: cell-based
measurement.name: Minimum inhibitory concentration, S. aureus ATCC 13709

1. CCN(CC)CC.CCN(CC)CC.CO[C@H]1/C=C/O[C@@]2(C)Oc3c(C)c(O)c4c(=O)c(c5oc6cc(N7CCN(CC(C)C)CC7)cc(O)c6nc-5c4c3C2=O)NC(=O)/C(C)=C\C=C\[C@H](C)[C@H](OC(=O)CCC(=O)NCCC(=O)NC(P(=O)(O)O)P(=O)(O)O)[C@@H](C)[C@@H](O)[C@@H](C)[C@H](OC(C)=O)[C@@H]1C 8 µg/mL
2. CO[C@H]1/C=C/O[C@@]2(C)Oc3c(C)c(O)c4c(=O)c(c5oc6cc(N7CCN(CCOC(=O)CCC(=O)NC(P(=O)(O)O)P(=O)(O)O)CC7)cc(O)c6nc-5c4c3C2=O)NC(=O)/C(C)=C\C=C\[C@H](C)[C@H](O)[C@@H](C)[C@@H](O)[C@@H](C)[C@H](OC(C)=O)[C@@H]1C.N.N 0.0039 µg/mL
3. CCN(CC)CC.CCN(CC)CC.CO[C@H]1/C=C/O[C@@]2(C)Oc3c(C)c(O)c4c(c3C2=O)C2=NC3(CCN(CC(C)C)CC3)N(C(=O)OCOC(=O)CCCC(P(=O)(O)O)P(=O)(O)O)C2=C(NC(=O)/C(C)=C\C=C\[C@H](C)[C@H](O)[C@@H](C)[C@@H](O)[C@@H](C)[C@H](OC(C)=O)[C@@H]1C)C4=O 0.25 µg/mL
4. CCN(CC)CC.CCN(CC)CC.CO[C@H]1/C=C/O[C@@]2(C)Oc3c(C)c(O)c4c(c3C2=O)C2=NC3(CCN(CC(C)C)CC3)NC2=C(NC(=O)/C(C)=C\C=C\[C@H](C)[C@H](OC(=O)CCC(=O)NCCCC(=O)NC(P(=O)(O)O)P(=O)(O)O)[C@@H](C)[C@@H](O)[C@@H](C)[C@H](OC(C)=O)[C@@H]1C)C4=O 32 µg/mL
5. CO[C@H]1/C=C/O[C@@]2(C)Oc3c(C)c(O)c4c(=O)c(c5oc6cc(N7CCN(CC(C)C)CC7)cc(O)c6nc-5c4c3C2=O)NC(=O)/C(C)=C\C=C\[C@H](C)[C@H](OC(=O)COC(=O)CCC(=O)NC(P(=O)(O)O)P(=O)(O)O)[C@@H](C)[C@@H](O)[C@@H](C)[C@H](OC(C)=O)[C@@H]1C 1 µg/mL
6. CO[C@H]1/C=C/O[C@@]2(C)Oc3c(C)c(O)c4c(=O)c(c5oc6cc(N7CCC(OC(=O)CCC(=O)NC(P(=O)(O)O)P(=O)(O)O)CC7)cc(O)c6nc-5c4c3C2=O)NC(=O)/C(C)=C\C=C\[C@H](C)[C@H](O)[C@@H](C)[C@@H](O)[C@@H](C)[C@H](OC(C)=O)[C@@H]1C 0.0625 µg/mL

* * *

Assay: Regeneration of drug from bone powder-bound prodrug
Type: in vitro ADME
measurement.name: Regeneration of parent drug once bound to bone (in words)

molecule	result
CO[C@H]1/C=C/O[C@@]2(C)Oc3c(C)c(O)c4c(=O)c(c5oc6cc(N7CCN(CC(C)C)CC7)cc(O)c6nc-5c4c3C2=O)NC(=O)/C(C)=C\C=C\[C@H](C)[C@H](OC(=O)COC(=O)CCC(=O)NC(P(=O)(O)O)P(=O)(O)O)[C@@H](C)[C@@H](O)[C@@H](C)[C@H](OC(C)=O)[C@@H]1C [Compound 84]	not able to regenerate
CCN(CC)CC.CCN(CC)CC.CO[C@H]1/C=C/O[C@@]2(C)Oc3c(C)c(O)c4c(c3C2=O)C2=NC3(CCN(CC(C)C)CC3)NC2=C(NC(=O)/C(C)=C\C=C\[C@H](C)[C@H](OC(=O)CCC(=O)NCCCC(=O)NC(P(=O)(O)O)P(=O)(O)O)[C@@H](C)[C@@H](O)[C@@H](C)[C@H](OC(C)=O)[C@@H]1C)C4=O [Compound 45]	not able to regenerate
